# System: EKVX NSCLC
# measurement_notes: NCI-60 one-dose screen, 48 h (100 = growth as untreated, 0 = no growth, -100 = all killed)
# test_conditions: 10 µM unless noted
The panel holds about 83,000 compounds, 20% with a hit somewhere; the sample as a whole holds those more often.
growth values, listed per item
Write it as a number; the unit % goes unstated.

For orientation, consider the following solved cases.
Cc1c(C(=O)NNC(=O)Nc2ccc(Cl)cc2)nnn1-c1ccc(Br)cc1: 88
COc1cc2c(c(OC)c1OC)C(=O)CC(c1cccc(NC(=O)c3cc(NC(=O)[C@H](C)N)ccc3Cl)c1)O2 (some centres undefined): 48.4
COC(=O)/C=C/c1cccc2c1C(=O)NC(C)(c1cc3ccccc3oc1=O)N2 (centres undefined): 78.2
N/N=C(\N)c1c(N)nc(=S)[nH]c1-c1ccc(Cl)cc1Cl: 116
Cc1ccc([C@H]2C(C(=O)c3ccc(Cl)cc3)C3(N[C@@H]2c2ccccc2)C(=O)Nc2ccccc23)cc1 (some centres undefined): 29.6

Consider N/C(=N\N=C\c1ccc([N+](=O)[O-])cc1)c1c(N)nc(=S)[nH]c1-c1ccc(Cl)cc1Cl . Its measured growth is 98.9

Consider O=c1[nH]c2ccc(Cl)cc2cc1CSc1nccc(-c2ccc(Cl)cc2)n1 . Its measured growth is 42.8

Consider Cc1cccc(NC(=O)CN2CCN(c3ncnc4c3cnn4-c3ccccc3)CC2)c1 . Its measured growth is 85.9

Consider Cc1cc2nc3c4ccccc4n(CC4=NCCN4)c3nc2cc1C . Its measured growth is 60.4

* * *

growth values, listed per item
# Test system: NCI-H322M lung
# measurement_notes: NCI-60 one-dose screen, 48 h (100 = growth as untreated, 0 = no growth, -100 = all killed)
# test_conditions: 10 µM unless noted
The panel holds about 83,000 compounds, 20% with a hit somewhere; the sample as a whole holds those more often.
Write it as a number; the unit % goes unstated.

COc1cc2c(c(OC)c1OC)C(=O)CC(c1cccc(NC(=O)c3cccc([N+](=O)[O-])c3)c1)O2 (stereo not drawn): 63.3

Form: item N#Cc1c(-c2ccc(Br)cc2)nc2n[nH]c(-c3ccc(Br)cc3)c2c1-c1ccc(C(F)(F)F)cc1 ; test system NCI-H322M lung; growth: 43.1

Form: item Cc1ccc(NC(=O)CN2CCN(c3ncnc4c3cnn4-c3ccccc3)CC2)cc1 ; test system NCI-H322M lung; growth: 86.5

Form: item COCOc1ccc2c(=O)c(C)c(C(=O)N[C@@H](Cc3ccccc3)C(O)C(=O)NCCc3ccc(OC)cc3)oc2c1 (stereo partly drawn) ; test system NCI-H322M lung; growth: 103

Form: item COc1cc(OC)cc(-c2cc3ccc(N(C)C)cc3c(=O)[nH]2)c1 ; test system NCI-H322M lung; growth: 52.9

* * *

# Test system: MALME-3M melanoma
# measurement_notes: NCI-60 one-dose screen, 48 h (100 = growth as untreated, 0 = no growth, -100 = all killed)
# test_conditions: 10 µM unless noted
About 83,000 compounds went through this panel and 20% of them were active in at least one assay; those are over-represented in the sample as a whole.
So basically every entry gets a class from its growth, ranges being L (below -30%), M (-30% to below 80%), H (80% or more)

Take a look at these entries with their results.
COc1cc(/C=C/C(=O)c2ccc(C)cc2)ccc1Oc1nc(Nc2ccc(F)cc2)nc(N(C)C)n1: M
O=C(NNc1nc2cc(F)ccc2n2c(CN3CCCCC3)ccc12)c1cnccn1: M
C=C1CCC2C3(C)COC(c4cccc(F)c4)OC3CCC2(C)C1C/C=C1/C(=O)OCC1O (stereo unspecified): L

query: Hello team, could you let me know which band the following molecule falls into: C=C1CC[C@@H]2[C@]3(C)COC(c4cn(-c5ccccc5)nc4-c4cccc([N+](=O)[O-])c4)O[C@@H]3CC[C@@]2(C)[C@@H]1C/C=C1/C(=O)OC[C@H]1O (stereo partly specified)
result: L
